target.or.system: T1, KDR-IgG (UniProt P35968 20-764)
T1 construct: Construct only cited from Park et al. 1994; also called KDR receptor-IgG chimera; soluble KDR; not shown: IgG part of the chimera (captured by anti-human IgG Fc)
T1 sequence (P35968 20-764): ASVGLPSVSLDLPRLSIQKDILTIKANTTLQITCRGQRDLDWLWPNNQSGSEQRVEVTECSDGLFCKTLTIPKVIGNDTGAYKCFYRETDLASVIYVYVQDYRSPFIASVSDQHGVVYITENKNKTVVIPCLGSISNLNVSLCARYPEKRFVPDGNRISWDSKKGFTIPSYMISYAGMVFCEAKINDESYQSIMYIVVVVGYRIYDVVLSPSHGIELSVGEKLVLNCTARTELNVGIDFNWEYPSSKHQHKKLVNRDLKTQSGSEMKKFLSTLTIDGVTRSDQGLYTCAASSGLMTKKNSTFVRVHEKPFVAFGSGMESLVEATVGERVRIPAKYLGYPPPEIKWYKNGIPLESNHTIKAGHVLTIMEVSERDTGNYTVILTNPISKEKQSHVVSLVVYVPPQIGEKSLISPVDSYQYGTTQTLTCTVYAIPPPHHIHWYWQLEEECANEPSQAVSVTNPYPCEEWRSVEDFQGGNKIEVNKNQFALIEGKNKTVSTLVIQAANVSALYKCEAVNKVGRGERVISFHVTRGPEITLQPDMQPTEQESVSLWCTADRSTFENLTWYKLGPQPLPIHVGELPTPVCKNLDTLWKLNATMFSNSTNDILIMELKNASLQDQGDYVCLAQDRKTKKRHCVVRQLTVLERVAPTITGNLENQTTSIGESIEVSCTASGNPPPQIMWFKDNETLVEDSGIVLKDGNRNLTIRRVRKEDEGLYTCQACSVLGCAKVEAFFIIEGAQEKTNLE
experimental.details: competition with 125I-VEGF165 for KDR-IgG, radioligand plate assay, no heparin
readout.kind: pIC50
Please note pIC50 is a logarithmic value: minus log10 of concentration in mol/L. Answer with that number alone.

Given the entry D109A, R110A VEGF (ligand, VEGF165 mutant from 293 cells, conditioned medium) APMAEGGGQNHHEVVKFMDVYQRSYCHPIETLVDIFQEYPDEIEYIFKPSCVPLMRCGGCCNDEGLECVPTEESNITMQIMRIKPHQGQHIGEMSFLQHNKCECRPKKAAARQENPCGPCSERRKHLFVQDPQTCKCSCKNTDSRCKARQLELNERTCRCDKPRR , report its measured pIC50.
10.52

Repeat with D63A VEGF (ligand, VEGF165 mutant from 293 cells, conditioned medium) APMAEGGGQNHHEVVKFMDVYQRSYCHPIETLVDIFQEYPDEIEYIFKPSCVPLMRCGGCCNAEGLECVPTEESNITMQIMRIKPHQGQHIGEMSFLQHNKCECRPKKDRARQENPCGPCSERRKHLFVQDPQTCKCSCKNTDSRCKARQLELNERTCRCDKPRR
11.30

Repeat with E44A VEGF (ligand, VEGF165 mutant from 293 cells, conditioned medium) APMAEGGGQNHHEVVKFMDVYQRSYCHPIETLVDIFQEYPDEIAYIFKPSCVPLMRCGGCCNDEGLECVPTEESNITMQIMRIKPHQGQHIGEMSFLQHNKCECRPKKDRARQENPCGPCSERRKHLFVQDPQTCKCSCKNTDSRCKARQLELNERTCRCDKPRR
11.40

Repeat with K48A VEGF (ligand, VEGF165 mutant from 293 cells, conditioned medium) APMAEGGGQNHHEVVKFMDVYQRSYCHPIETLVDIFQEYPDEIEYIFAPSCVPLMRCGGCCNDEGLECVPTEESNITMQIMRIKPHQGQHIGEMSFLQHNKCECRPKKDRARQENPCGPCSERRKHLFVQDPQTCKCSCKNTDSRCKARQLELNERTCRCDKPRR
10.70

Repeat with E42A VEGF (ligand, VEGF165 mutant from 293 cells, conditioned medium) APMAEGGGQNHHEVVKFMDVYQRSYCHPIETLVDIFQEYPDAIEYIFKPSCVPLMRCGGCCNDEGLECVPTEESNITMQIMRIKPHQGQHIGEMSFLQHNKCECRPKKDRARQENPCGPCSERRKHLFVQDPQTCKCSCKNTDSRCKARQLELNERTCRCDKPRR
11.15

Repeat with R112A, E114A VEGF (ligand, VEGF165 mutant from 293 cells, conditioned medium) APMAEGGGQNHHEVVKFMDVYQRSYCHPIETLVDIFQEYPDEIEYIFKPSCVPLMRCGGCCNDEGLECVPTEESNITMQIMRIKPHQGQHIGEMSFLQHNKCECRPKKDRAAQANPCGPCSERRKHLFVQDPQTCKCSCKNTDSRCKARQLELNERTCRCDKPRR
10.40

Repeat with wildtype VEGF165 expressed in 293 cells (ligand, N-linked carbohydrate at Asn75, Transiently expressed in 293 cells; tested as conditioned medium) APMAEGGGQNHHEVVKFMDVYQRSYCHPIETLVDIFQEYPDEIEYIFKPSCVPLMRCGGCCNDEGLECVPTEESNITMQIMRIKPHQGQHIGEMSFLQHNKCECRPKKDRARQENPCGPCSERRKHLFVQDPQTCKCSCKNTDSRCKARQLELNERTCRCDKPRR
10.52
